The values you see were collected from the supplement of paper PMC3334620.

# system.name: Cad1 (UniProt P24813)
# Sequence: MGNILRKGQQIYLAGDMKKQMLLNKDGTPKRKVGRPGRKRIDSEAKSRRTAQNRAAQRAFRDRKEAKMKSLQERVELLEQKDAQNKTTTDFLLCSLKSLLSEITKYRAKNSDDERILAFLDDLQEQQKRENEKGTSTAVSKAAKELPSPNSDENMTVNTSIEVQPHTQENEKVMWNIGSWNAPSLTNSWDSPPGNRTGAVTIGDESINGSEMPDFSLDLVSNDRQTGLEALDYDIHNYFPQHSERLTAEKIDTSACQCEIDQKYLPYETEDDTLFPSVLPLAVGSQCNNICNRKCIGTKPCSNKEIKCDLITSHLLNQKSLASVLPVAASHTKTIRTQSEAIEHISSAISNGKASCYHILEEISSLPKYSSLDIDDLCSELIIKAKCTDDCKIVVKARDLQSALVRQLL
# test.method.notes: PBM E-score (8-mer binding enrichment) (E-score (-0.5 to 0.5)); higher = stronger / more preferred TF binding
# experimental.parameters: protein concentration: 100 nM; construct: GST-full length
The full ranking holds about 33,000 sequences; the median of “E-score (-0.5 to 0.5)” is about -0.0014, and the highest 2% start at about 0.25. For the sample, the highest values were picked, then their nearest neighbours and some sequences at random.
Here the recorded PBM E-score is given for each entry.
measured.parameter: PBM E-score

In [3]: df
Out[3]:
   record_sequence  measured_parameter  experimental_value
0         AAACATAC         PBM E-score              -0.123
1         ACTAACAT         PBM E-score               0.255
2         CAACAACA         PBM E-score               0.269
3         ATACATAC         PBM E-score              -0.195
4         AAACAATT         PBM E-score               0.114

----------
# system.name: Cad1 (UniProt P24813)
# Sequence: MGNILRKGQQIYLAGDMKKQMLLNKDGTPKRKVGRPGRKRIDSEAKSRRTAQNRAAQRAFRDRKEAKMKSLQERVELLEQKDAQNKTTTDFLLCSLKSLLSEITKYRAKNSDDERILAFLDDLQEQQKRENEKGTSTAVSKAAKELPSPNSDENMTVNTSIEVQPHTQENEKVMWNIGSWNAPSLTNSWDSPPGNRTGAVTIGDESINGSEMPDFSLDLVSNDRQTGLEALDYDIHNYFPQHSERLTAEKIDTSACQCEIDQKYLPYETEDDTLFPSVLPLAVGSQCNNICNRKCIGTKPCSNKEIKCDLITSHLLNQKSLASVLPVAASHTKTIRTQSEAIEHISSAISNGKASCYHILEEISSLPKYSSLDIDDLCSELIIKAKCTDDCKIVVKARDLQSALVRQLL
# test.method.notes: PBM E-score (8-mer binding enrichment) (E-score (-0.5 to 0.5)); higher = stronger / more preferred TF binding
# experimental.parameters: protein concentration: 100 nM; construct: GST-full length
Over roughly 33,000 sequences, “E-score (-0.5 to 0.5)” has its median near -0.0014; the highest 2% begin near 0.25. The full list was thinned out, with the highest values kept by preference.
Label met when PBM E-score is at or above 0.04; otherwise label not met.

>>> df
    record_sequence  category_label
 0         ACGAACAA             met
 1         GTGCCGAA         not met
 2         CAGTTATA         not met
 3         CATTCGGC         not met
 4         ATCTAGGC         not met
 5         GACCGGGC         not met
 6         ATTGTCCC         not met
 7         CTATTACA             met
 8         ATTACAAA             met
 9         GCGGTAGA         not met
10         AACACAGC             met
11         ACCTCCGC         not met
12         CAACCGCG             met
13         AAACCGCG             met
14         CTTGGCTA             met
15         GAGTCCGC         not met
16         GACTGCGC         not met
17         CCGAACAA             met
18         CGCGATGC         not met
19         ATATTACG             met
20         ATATTACA             met
21         CTTACAAG         not met
22         CAGAAGAC         not met
23         TAGAACTA         not met

----------
Here the recorded PBM E-score is given for each entry.
# system.name: Cad1 (UniProt P24813)
# Sequence: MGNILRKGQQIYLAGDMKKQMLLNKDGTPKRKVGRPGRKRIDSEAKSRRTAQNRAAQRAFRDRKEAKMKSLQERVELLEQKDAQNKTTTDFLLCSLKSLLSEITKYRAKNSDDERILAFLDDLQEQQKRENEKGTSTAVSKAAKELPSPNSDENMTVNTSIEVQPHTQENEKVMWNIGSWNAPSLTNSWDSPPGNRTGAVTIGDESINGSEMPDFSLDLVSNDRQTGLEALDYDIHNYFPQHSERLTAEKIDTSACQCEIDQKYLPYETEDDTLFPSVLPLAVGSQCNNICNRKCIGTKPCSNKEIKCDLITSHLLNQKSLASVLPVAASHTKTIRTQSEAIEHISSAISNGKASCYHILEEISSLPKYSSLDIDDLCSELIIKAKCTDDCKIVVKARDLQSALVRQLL
# test.method.notes: PBM E-score (8-mer binding enrichment) (E-score (-0.5 to 0.5)); higher = stronger / more preferred TF binding
# experimental.parameters: protein concentration: 100 nM; construct: GST-full length
The full ranking holds about 33,000 sequences; the median of “E-score (-0.5 to 0.5)” is about -0.0014, and the highest 2% start at about 0.25. The list comes from a sample in which the highest values are over-represented; it also holds close analogues and randomly drawn sequences.
measured.parameter: PBM E-score

In [3]: df
Out[3]:
    record_sequence  measured_parameter  experimental_value
 0         GGTAACAA         PBM E-score               0.261
 1         ACAAATGT         PBM E-score              0.0516
 2         ACAAACTC         PBM E-score               0.052
 3         TCGGAACA         PBM E-score               0.268
 4         CGCGCGCC         PBM E-score               0.254
 5         GATCAGCA         PBM E-score               0.141
 6         ACAATTAC         PBM E-score               0.119
 7         AATCAACA         PBM E-score               0.275
 8         GTCTAGTA         PBM E-score              0.0789
 9         CGCGCGGA         PBM E-score               0.212
10         CAAATTAA         PBM E-score               0.207
11         ACGCCTAT         PBM E-score              -0.161
12         AAAGTCAT         PBM E-score               0.074
13         CTGGACGC         PBM E-score               0.069
14         ACAAATAA         PBM E-score               0.206
15         ATTAGATC         PBM E-score                0.03
16         AATCGGAG         PBM E-score              0.0523
17         GGCGCGCC         PBM E-score               0.172
18         ATTCAATG         PBM E-score               0.114
19         CGATTCTC         PBM E-score              0.0405
20         CCCTCGAC         PBM E-score             -0.0126
21         AGGATCTA         PBM E-score              -0.266
22         GCTATCGA         PBM E-score             -0.0158
23         GCAAATAC         PBM E-score              0.0468
24         GATCAACA         PBM E-score               0.131
25         AGTAACAA         PBM E-score               0.082
26         CGCGCGGC         PBM E-score               0.261
27         GGCGGCTA         PBM E-score              0.0654
28         AATCGGAA         PBM E-score               0.211
29         GCGATCGC         PBM E-score               0.241
30         AACCTTGA         PBM E-score              0.0727
31         CGACCCGC         PBM E-score              0.0365
32         GGTCGACC         PBM E-score               0.263
33         AAAAAAAC         PBM E-score               0.121
34         CCAATCGC         PBM E-score              0.0869
